Origin of measurements: the supplement of paper PMC9233669

I'd be grateful if you could share measured self-aminoacylation for these entries.
Test system: biotinyl-Val-oxazolone
Assay: self-aminoacylation, catalytic enhancement (BVO) (fold over background); higher = more active; k-Seq, kA / k0A0; sequences stand for … in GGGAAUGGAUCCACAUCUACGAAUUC…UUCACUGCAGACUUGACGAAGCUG
Variants at the floor of the assay were thinned out.
Answer using only a numeral; do not append any unit.

Query :: Given AUUCAGCUAGGUCAUCGCGUG [Fam2.2 aminoacylation ribozyme variant] , report its self-aminoacylation on biotinyl-Val-oxazolone.
Result :: 5.79

Query :: Given CCACUCUUCACGCAAUCGGUC [Fam1B.1 aminoacylation ribozyme variant] , report its self-aminoacylation on biotinyl-Val-oxazolone.
Result :: 1.21

Query :: Given GUUCACCUAGGUCAUUGGGUG [Fam2.2 aminoacylation ribozyme variant] , report its self-aminoacylation on biotinyl-Val-oxazolone.
Result :: 2.27

Query :: Given AUUCAACUAGGUGAUCGGGUG [Fam2.2 aminoacylation ribozyme variant] , report its self-aminoacylation on biotinyl-Val-oxazolone.
Result :: 2.76

Query :: Given AUUACCCUGGUAAUGGAGUGA [Fam2.1 aminoacylation ribozyme variant] , report its self-aminoacylation on biotinyl-Val-oxazolone.
Result :: 3.73

Query :: Given CUACUUCAAACAAUCGGUAAG [Fam1A.1 aminoacylation ribozyme variant] , report its self-aminoacylation on biotinyl-Val-oxazolone.
Result :: 0.662

Query :: Given AUUACACUGGCCAUCGAGUGA [Fam2.1 aminoacylation ribozyme variant] , report its self-aminoacylation on biotinyl-Val-oxazolone.
Result :: 3.07

Query :: Given AAGCUUGCUAAGAGUCGCAAG [Fam3.1 aminoacylation ribozyme variant] , report its self-aminoacylation on biotinyl-Val-oxazolone.
Result :: 2.44

Query :: Given CCACACUUCGAGCCAUCGGUC [Fam1B.1 aminoacylation ribozyme variant] , report its self-aminoacylation on biotinyl-Val-oxazolone.
Result :: 1.87

###

System: biotinyl-Ile-oxazolone
Assay: self-aminoacylation, catalytic enhancement (BIO) (fold over background); higher = more active; k-Seq, kA / k0A0; sequences stand for … in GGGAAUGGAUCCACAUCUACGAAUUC…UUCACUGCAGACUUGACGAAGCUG
This sample holds only a part of the variants without activity.
# self-aminoacylation >= 2 gives yes, anything below gives no

Query :: Could you please find out whether GCACACUUCAAUCAAUCGGUC [Fam1B.1 aminoacylation ribozyme variant] has self-aminoacylation that meets 2 or exceeds it?
Result :: no

Query :: Could you please find out whether CCAGACUUCAACCAAUCGGUC [Fam1B.1 aminoacylation ribozyme variant] has self-aminoacylation that meets 2 or exceeds it?
Result :: no

Query :: Could you please find out whether CAACUUCAAACAAUCGGUUUG [Fam1A.1 aminoacylation ribozyme variant] has self-aminoacylation that meets 2 or exceeds it?
Result :: no

Query :: Could you please find out whether AUUCACCUAGGUCCUCGAGUG [Fam2.2 aminoacylation ribozyme variant] has self-aminoacylation that meets 2 or exceeds it?
Result :: no

Query :: Could you please find out whether AUCCACCUAGGCCAUCGGGUG [Fam2.2 aminoacylation ribozyme variant] has self-aminoacylation that meets 2 or exceeds it?
Result :: yes

Query :: Could you please find out whether AUUCCCCUGGUCAUCGAGGGA [Fam2.1 aminoacylation ribozyme variant] has self-aminoacylation that meets 2 or exceeds it?
Result :: no

Query :: Could you please find out whether ACACAUUUCAAGCAAUCGGUC [Fam1B.1 aminoacylation ribozyme variant] has self-aminoacylation that meets 2 or exceeds it?
Result :: no

Query :: Could you please find out whether CCACACUUCUAGCAAUUGGUC [Fam1B.1 aminoacylation ribozyme variant] has self-aminoacylation that meets 2 or exceeds it?
Result :: no

Query :: Could you please find out whether AUUACCCUGGUCAGCGACUGA [Fam2.1 aminoacylation ribozyme variant] has self-aminoacylation that meets 2 or exceeds it?
Result :: no

Query :: Could you please find out whether AAUUUUGCAAAUAGUCGCAAG [Fam3.1 aminoacylation ribozyme variant] has self-aminoacylation that meets 2 or exceeds it?
Result :: yes

Query :: Could you please find out whether UUUCACCUAGGUCACCGGGUG [Fam2.2 aminoacylation ribozyme variant] has self-aminoacylation that meets 2 or exceeds it?
Result :: yes

Query :: Could you please find out whether CUAGUUCACACAAUCGGUCUG [Fam1A.1 aminoacylation ribozyme variant] has self-aminoacylation that meets 2 or exceeds it?
Result :: no

Query :: Could you please find out whether AUUAACCCGGUCAUCGAGUGA [Fam2.1 aminoacylation ribozyme variant] has self-aminoacylation that meets 2 or exceeds it?
Result :: yes

Query :: Could you please find out whether CCACAUUUCUAGCAAUCGGUC [Fam1B.1 aminoacylation ribozyme variant] has self-aminoacylation that meets 2 or exceeds it?
Result :: no

Query :: Could you please find out whether AUUACACUGGUAAUCGAGUGA [Fam2.1 aminoacylation ribozyme variant] has self-aminoacylation that meets 2 or exceeds it?
Result :: yes

Query :: Could you please find out whether AUUACCCUAGUCAUAGAGUGA [Fam2.1 aminoacylation ribozyme variant] has self-aminoacylation that meets 2 or exceeds it?
Result :: yes

Query :: Could you please find out whether AAGUUUGCUAAUAUUCGCAAA [Fam3.1 aminoacylation ribozyme variant] has self-aminoacylation that meets 2 or exceeds it?
Result :: no
